Give measured pIC50 for each item. Keep answers brief.
- System: CCRF-CEM
- TEST: Antiviral activity against CEM cells
- Type: functional, cell-based
- MEASUREMENT_CONDITIONS: Homo sapiens
Formally, pIC50 is defined as -log10 of the concentration c, with c in mol/L.

// recorded pIC50 for CCC(=O)N[C@@H](CC(=O)OCc1ccccc1)C(=O)N[C@@H](Cc1ccccc1)[C@H](O)Cc1ccccc1C(=O)NC(C)(C)C : 5.28

// recorded pIC50 for CC(=O)N[C@@H](C[S+]([O-])c1ccc2ccccc2n1)C(=O)N[C@@H](Cc1ccccc1)[C@H](O)Cc1ccccc1C(=O)NC(C)(C)C (some centres undefined) : 7.14

// recorded pIC50 for CC(C)(C)NC(=O)c1ccccc1C[C@@H](O)[C@H](Cc1ccccc1)NC(=O)[C@H](CS(=O)(=O)Cc1ccccc1)NS(C)(=O)=O : 6.10

// recorded pIC50 for CC(C)(C)NC(=O)c1ccccc1C[C@@H](O)[C@H](Cc1ccccc1)NC(=O)[C@H](CSCc1ccccc1)NS(C)(=O)=O : 5.78

----------
- TARGET_OR_TEST_SYSTEM: Human immunodeficiency virus type 1 protease (Human immunodeficiency virus 1)
Classification field. Basis: IC50. Definitions: bin 0 = under 0.5 nM, bin 1 = from 0.5 nM up to 20 nM, bin 2 = 20 nM and over

*Q* Lab note: which band did CC(C)(C)NC(=O)c1ccccc1C[C@@H](O)[C@H](Cc1ccccc1)NC(=O)[C@@H](N)CC(=O)OCc1ccccc1 land in?
*A* bin 2

*Q* Lab note: which band did CC(C)(C)NC(=O)c1ccccc1C[C@@H](O)[C@H](Cc1ccccc1)NC(=O)[C@H](CS(=O)(=O)Cc1ccccc1)NS(C)(=O)=O land in?
*A* bin 1

*Q* Lab note: which band did CC(C)(C)NC(=O)c1ccccc1C[C@@H](O)[C@H](Cc1ccccc1)NC(=O)[C@H](C[S+]([O-])c1ccc2ccccc2c1)NS(C)(=O)=O (some centres undefined) land in?
*A* bin 1

*Q* Lab note: which band did CC(C)(C)NC(=O)c1ccccc1C[C@@H](O)[C@H](Cc1ccccc1)NC(=O)[C@H](CS(=O)(=O)c1ccc(Cl)cc1)NS(C)(=O)=O land in?
*A* bin 0

*Q* Lab note: which band did CC(C)(C)NC(=O)c1ccccc1C[C@@H](O)[C@H](Cc1ccccc1)NC(=O)[C@H](CSc1ccc2ccccc2n1)NS(C)(=O)=O land in?
*A* bin 2

*Q* Lab note: which band did CC(C)(C)NC(=O)c1ccccc1C[C@@H](O)[C@H](Cc1ccccc1)NC(=O)[C@H](CSc1ccc(C(F)(F)F)cc1)NS(C)(=O)=O land in?
*A* bin 2

*Q* Lab note: which band did CC(=O)N[C@@H](CS(=O)(=O)c1ccc2ccccc2n1)C(=O)N[C@@H](Cc1ccccc1)[C@H](O)Cc1ccccc1C(=O)NC(C)(C)C land in?
*A* bin 0

*Q* Lab note: which band did CC(C)(C)NC(=O)c1ccccc1C[C@@H](O)[C@H](Cc1ccccc1)NC(=O)[C@H](CSc1ccccc1)NS(C)(=O)=O land in?
*A* bin 2

*Q* Lab note: which band did CC(C)(C)NC(=O)c1ccccc1C[C@@H](O)[C@H](Cc1ccccc1)NC(=O)[C@H](C[S+]([O-])c1ccc(F)cc1)NS(C)(=O)=O (some centres undefined) land in?
*A* bin 0

*Q* Lab note: which band did CC(C)(C)NC(=O)c1ccccc1C[C@@H](O)[C@H](Cc1ccccc1)NC(=O)[C@H](CS(=O)(=O)c1ccc2ccccc2n1)NS(C)(=O)=O land in?
*A* bin 0

*Q* Lab note: which band did CC(C)(C)NC(=O)c1ccccc1C[C@@H](O)[C@H](Cc1ccccc1)NC(=O)[C@H](CS(=O)(=O)c1ccccc1)NS(C)(=O)=O land in?
*A* bin 1

*Q* Lab note: which band did CC(C)(C)NC(=O)c1ccccc1C[C@@H](O)[C@H](Cc1ccccc1)NC(=O)[C@H](C[S+]([O-])c1ccccc1)NS(C)(=O)=O (some centres undefined) land in?
*A* bin 1

*Q* Lab note: which band did CC(C)(C)NC(=O)c1ccccc1C[C@@H](O)[C@H](Cc1ccccc1)NC(=O)[C@H](C[S+]([O-])c1cccc2ccccc12)NS(C)(=O)=O (some centres undefined) land in?
*A* bin 0

*Q* Lab note: which band did CC(C)(C)NC(=O)c1ccccc1C[C@@H](O)[C@H](Cc1ccccc1)NC(=O)[C@H](CS(=O)(=O)c1ccc(C(F)(F)F)cc1)NS(C)(=O)=O land in?
*A* bin 1

*Q* Lab note: which band did CCC(=O)N[C@@H](CC(=O)OCc1ccccc1)C(=O)N[C@@H](Cc1ccccc1)[C@H](O)Cc1ccccc1C(=O)NC(C)(C)C land in?
*A* bin 2

*Q* Lab note: which band did CC(C)(C)NC(=O)c1ccccc1C[C@@H](O)[C@H](Cc1ccccc1)NC(=O)[C@H](CSc1ccccn1)NS(C)(=O)=O land in?
*A* bin 2

*Q* Lab note: which band did CC(C)(C)NC(=O)c1ccccc1C[C@@H](O)[C@H](Cc1ccccc1)NC(=O)[C@H](C[S+]([O-])c1ccc(C(F)(F)F)cc1)NS(C)(=O)=O (some centres undefined) land in?
*A* bin 1

*Q* Lab note: which band did CC(C)(C)NC(=O)c1ccccc1C[C@@H](O)[C@H](Cc1ccccc1)NC(=O)[C@H](CSc1cccc2ccccc12)NS(C)(=O)=O land in?
*A* bin 1

*Q* Lab note: which band did CC(C)(C)NC(=O)c1ccccc1C[C@@H](O)[C@H](Cc1ccccc1)NC(=O)[C@H](CS(=O)(=O)c1cccc2ccccc12)NS(C)(=O)=O land in?
*A* bin 0
